The measurements presented in this section are drawn from PubChem BioAssay.

composite z-score values for the compounds below.
# METHOD SUMMARY: binders from COS7 lysate, DM2A8 probe, primary screen, torsin A project, cell lysate, small-molecule microarray, fluorescence 635/667 (AID 1065)
# MEASUREMENT SETUP: higher = more signal, COS7 lysate expressing mutant human TOR1A
Response field accepts a number only; no unit should be typed.

Field: example entries. Status: answers known.
COMPOUND	RECORDED METRIC	MEASURED NUMBER
C=CCC(OC(C)=O)[C@@H]1[C@@H](N(Cc2ccc(-c3cccc(C(F)(F)F)c3)o2)C(=O)Cc2ccc(OC)cc2)c2cc(OCCCO)ccc2N1C(=O)Cc1ccc2ccccc2c1 (stereo partly specified)	composite z-score	-0.919
O=c1cccc(-c2ccco2)o1	composite z-score	0.336
COC(=O)C(CC#Cc1ccc2c(c1)[C@]1(C(=O)N2)[C@H](c2ccc(OCCO)cc2)N2[C@H](c3ccccc3)[C@H](c3ccccc3)OC(=O)[C@H]2[C@@H]1C(=O)N1CCN(c2ncccn2)CC1)C(=O)OC	composite z-score	1.01
COCCOC(=O)N1C(=O)[C@@]2(c3cc(C#CC4=CCCCC4)ccc31)[C@H](C(=O)N1CCCCCCC1)[C@H]1C(=O)O[C@H](c3ccccc3)[C@H](c3ccccc3)N1[C@@H]2c1ccc(OCCO)cc1	composite z-score	0.399
O=C1NC(=O)C2C1C=CC(C(O)c1ccccn1)N2Nc1ccc(Cl)cc1Cl (stereo unspecified)	composite z-score	-0.0795

Now consider the entry below.
Entry `CCOC(=O)C[C@H]1[C@H](OC(=O)c2cc3ccccc3oc2=O)[C@@H](NC(=O)c2ccc3ccccc3c2)c2cc(OCCCO)ccc2N1C(=O)Cc1ccc(OC)cc1` — recorded composite z-score = -0.0976
